# Tested on: rCHIKV mutants
# assay_remarks: microbe, parasite or virus in culture
# Type: cell-based, Chikungunya virus
# condition_details: rCHIKV nsP1-K299E; read-out: Mean EC50 ± SD
measured_quantity: EC50 (nM)

• Nc1ncnc2c1ncn2C1C(F)=C(CCO)C(O)C1O (stereo not shown) [FHNA, 6′-fluoro-homoneplanocin A] = 500

----------
# Test system: rCHIKV mutants
# assay_remarks: microbe, parasite or virus in culture
# Assay type: cell-based, Chikungunya virus
# condition_details: Chikungunya virus, Vero C1008, read-out: Mean EC50 ± SD
pEC50: −log10 of the molar value.
In this section, each of the molecules is paired with its reported pEC50.
measured_quantity: pEC50

* COc1c(C)c2c(c(O)c1C/C=C(\C)CCC(=O)O)C(=O)OC2 [Mycophenolic acid, mycophenolic acid, reference compound] | 6.40
* O=c1cnn([C@@H]2O[C@H](CO)[C@@H](O)[C@H]2O)c(=O)[nH]1 [6-Azauridine, 6-azauridine, reference compound] | 6.52
